- System tested: Left-right determination factor 2 (Homo sapiens)
- Assay summary: LEFTY2 binders on small-molecule microarrays, primary screen, biochemical, small-molecule microarray, 635 nm fluorescence scan (AID 1110)
- Run conditions: LEFTY2 binding, higher = more signal
Endpoint: composite z-score

>  <Input smiles>
COCCOC(=O)N1C(=O)[C@@]2(c3cc(C#CCNC(N)=O)ccc31)[C@H](c1ccc(OCCO)cc1)N1[C@H](c3ccccc3)[C@H](c3ccccc3)OC(=O)[C@H]1[C@@H]2C(=O)Nc1nc2ccccc2s1

>  <System tested>
Left-right determination factor 2 (Homo sapiens)

>  <Obs value>
1.24

$$$$
>  <Input smiles>
C=C(CCCC)/C(=C/C[C@@H](OC(=O)c1ccncc1)c1ccc(CO)o1)c1cnc2ccccc2c1

>  <System tested>
Left-right determination factor 2 (Homo sapiens)

>  <Obs value>
1.48

$$$$
>  <Input smiles>
CCCC[C@H]1OB(O)C[C@H]2C1=C(COC)C[C@H]1C(=O)N(Cc3ccccc3)C(=O)[C@H]12

>  <System tested>
Left-right determination factor 2 (Homo sapiens)

>  <Obs value>
0.313

$$$$
